- TGT: T1, IFN-αG (human, UniProt P01569 24-189)
- T1 construct: also called IFN-α5; alpha G
- EXPERIMENT_NOTES: ProteOn, one antigen concentration
EXPERIMENTAL_ENDPOINT: pKd
Answers are plain numbers, as −log10 of the molar value.

The following binders have reported results that may help.
IFWM3353 (antibody, V domains shown, VH IFWH624, VL IFWL1014; converted mAb; also called IFWB3088) VH: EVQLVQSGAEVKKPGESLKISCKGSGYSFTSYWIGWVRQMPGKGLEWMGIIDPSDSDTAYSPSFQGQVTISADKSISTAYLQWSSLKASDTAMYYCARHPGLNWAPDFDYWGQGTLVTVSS VL: DIQMTQSPSSLSASVGDRVTITCRASQSIDRALNWYQQKPGKAPKLLIYFASSLQSGVPSRFSGSGSGTDFTLTISSLQPEDFATYYCQQSFDFPLTFGQGTKVEIK
10.80
IFWM3332 (antibody, V domains shown, VH IFWH591, VL IFWL1074; converted mAb; also called IFWB3067) VH: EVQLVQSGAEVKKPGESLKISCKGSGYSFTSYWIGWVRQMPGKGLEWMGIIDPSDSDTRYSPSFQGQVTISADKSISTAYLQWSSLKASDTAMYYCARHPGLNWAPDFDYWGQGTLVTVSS VL: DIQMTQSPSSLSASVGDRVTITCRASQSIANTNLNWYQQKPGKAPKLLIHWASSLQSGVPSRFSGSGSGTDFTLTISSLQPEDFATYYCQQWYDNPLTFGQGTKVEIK
10.30
IFWM3307 (antibody, V domains shown, VH IFWH591, VL IFWL1001; converted mAb; also called IFWB3042) VH: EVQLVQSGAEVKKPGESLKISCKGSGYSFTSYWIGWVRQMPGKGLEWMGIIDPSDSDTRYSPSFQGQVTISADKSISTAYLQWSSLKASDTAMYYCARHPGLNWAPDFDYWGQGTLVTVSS VL: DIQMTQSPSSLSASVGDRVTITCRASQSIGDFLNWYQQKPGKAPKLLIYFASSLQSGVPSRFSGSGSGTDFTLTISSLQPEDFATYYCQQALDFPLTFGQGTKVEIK
10.24
IFWM3352 (antibody, V domains shown, VH IFWH624, VL IFWL1013; converted mAb; also called IFWB3087) VH: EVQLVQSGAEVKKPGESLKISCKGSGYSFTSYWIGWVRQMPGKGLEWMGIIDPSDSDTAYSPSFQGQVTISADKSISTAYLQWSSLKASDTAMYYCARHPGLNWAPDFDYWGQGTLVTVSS VL: DIQMTQSPSSLSASVGDRVTITCRASQSINNFLNWYQQKPGKAPKLLIYFASSLQSGVPSRFSGSGSGTDFTLTISSLQPEDFATYYCQQSFNLPITFGQGTKVEIK
10.05

Summary for this binder, IFWM3306 (antibody, V domains shown, VH IFWH591, VL IFWL1000; converted mAb; also called IFWB3041) VH: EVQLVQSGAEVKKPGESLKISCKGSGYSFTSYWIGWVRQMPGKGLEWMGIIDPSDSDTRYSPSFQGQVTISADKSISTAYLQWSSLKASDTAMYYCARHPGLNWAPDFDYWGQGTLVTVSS VL: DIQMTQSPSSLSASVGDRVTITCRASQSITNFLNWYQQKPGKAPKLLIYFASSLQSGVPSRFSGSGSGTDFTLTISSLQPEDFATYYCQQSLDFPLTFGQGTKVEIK : pKd is 10.54
